The values you see were collected from paper PMC2263054.

System: Xenopus laevis VDR (Xenopus laevis)
Sequence (O13124 90-422): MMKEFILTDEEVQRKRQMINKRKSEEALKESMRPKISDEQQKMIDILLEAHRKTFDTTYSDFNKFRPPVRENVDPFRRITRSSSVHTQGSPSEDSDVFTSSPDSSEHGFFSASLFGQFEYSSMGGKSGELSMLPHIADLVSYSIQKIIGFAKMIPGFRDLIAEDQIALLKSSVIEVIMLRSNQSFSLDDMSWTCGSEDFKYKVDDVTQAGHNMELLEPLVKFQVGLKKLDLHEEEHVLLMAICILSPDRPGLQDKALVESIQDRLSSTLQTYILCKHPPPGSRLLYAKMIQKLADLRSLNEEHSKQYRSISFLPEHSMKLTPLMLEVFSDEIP
Test Protocol: luciferase reporter transactivation assay in HepG2-NTCP cells, GAL4/xlVDR LBD chimera with tk-UAS-Luc
Experimental Parameters: HepG2-NTCP cells, luciferase reporter; read-out: Xenopus VDR EC50 ± SD
Recorded Metric: EC50 (µM)
One number for each entry, in µM.

Here is how some molecules turned out for EC50.
{"Molecule": "C=C1CC[C@H](O)C/C1=C/C=C1\\CCC[C@]2(C)[C@@H]([C@H](C)CCCC(C)(C)O)CC[C@@H]12 [25-Hydroxyvitamin D3]", "System": "Xenopus laevis VDR (Xenopus laevis)", "Result": 11}
{"Molecule": "C=C1/C(=C\\C=C2/CCC[C@]3(C)[C@@H]([C@H](C)CCCC(C)C)CC[C@@H]23)C[C@@H](O)C[C@@H]1O [1α-Hydroxyvitamin D3]", "System": "Xenopus laevis VDR (Xenopus laevis)", "Result": 0.157}
{"Molecule": "C=C1CC[C@H](O)C/C1=C/C=C1\\CCC[C@]2(C)[C@@H]([C@H](C)CC[C@@H](O)C(C)(C)O)CC[C@@H]12 [24(R),25-(OH)2-Vitamin D3]", "System": "Xenopus laevis VDR (Xenopus laevis)", "Result": 11}

Ask: Fill in the blank: the reported EC50 of C=C1/C(=C\C=C2/CCC[C@]3(C)[C@@H]([C@H](C)/C=C/[C@H](C)C(C)C)CC[C@@H]23)C[C@@H](O)C[C@@H]1O [1α-Hydroxyvitamin D2] is ____.
Result: 0.624

----------
System: Zebrafish VDR (Danio rerio, UniProt Q9PTN2)
Sequence (Q9PTN2 121-453): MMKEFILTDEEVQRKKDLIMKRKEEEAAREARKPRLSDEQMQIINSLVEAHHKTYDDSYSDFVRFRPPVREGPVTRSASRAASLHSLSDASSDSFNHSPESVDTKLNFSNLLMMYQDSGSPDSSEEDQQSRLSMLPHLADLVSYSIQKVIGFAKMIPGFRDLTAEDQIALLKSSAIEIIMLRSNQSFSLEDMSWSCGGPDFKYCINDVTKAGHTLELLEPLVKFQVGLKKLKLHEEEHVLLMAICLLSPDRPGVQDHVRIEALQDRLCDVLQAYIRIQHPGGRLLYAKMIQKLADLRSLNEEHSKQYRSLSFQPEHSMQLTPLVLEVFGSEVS
Test Protocol: luciferase reporter transactivation assay in HepG2-NTCP cells, GAL4/zfVDR LBD chimera with tk-UAS-Luc
Type: cell-based
Experimental Parameters: screening for activators, at least three concentrations of each drug
Recorded Metric: Effect on zebrafish VDR

{"Smiles Representation": "C#C[C@]1(O)CC[C@H]2[C@@H]3CCC4=CC(=O)CC[C@@H]4[C@H]3CC[C@@]21C", "Recorded Metric": "Effect on zebrafish VDR", "Result": "No effect"}
{"Smiles Representation": "CC(=O)O[C@H]1C(=O)[C@@]2(C)[C@H]([C@H](OC(=O)c3ccccc3)[C@]3(O)C[C@H](OC(=O)[C@H](O)[C@@H](NC(=O)c4ccccc4)c4ccccc4)C(C)=C1C3(C)C)[C@]1(OC(C)=O)CO[C@@H]1C[C@@H]2O", "Recorded Metric": "Effect on zebrafish VDR", "Result": "No effect"}
{"Smiles Representation": "CC(C)[C@H](C)CC[C@@H](C)[C@H]1CC[C@H]2[C@@H]3CC=C4C[C@@H](O)CC[C@]4(C)[C@H]3CC[C@]12C", "Recorded Metric": "Effect on zebrafish VDR", "Result": "No effect"}
{"Smiles Representation": "Cc1c(C)c2c(c(C)c1O)CC[C@@](C)(CCC[C@H](C)CCC[C@H](C)CCCC(C)C)O2", "Recorded Metric": "Effect on zebrafish VDR", "Result": "No effect"}

----------
System: Zebrafish VDR (Danio rerio, UniProt Q9PTN2)
Test Protocol: luciferase reporter transactivation assay in HepG2-NTCP cells, GAL4/zfVDR LBD chimera with tk-UAS-Luc
Type: cell-based
Experimental Parameters: screening for activators, at least three concentrations of each drug
Recorded Metric: Effect on zebrafish VDR

Recorded Effect on zebrafish VDR, per entry:
{"Compound": "C[C@H](CCC(=O)O)[C@H]1CC[C@H]2[C@@H]3[C@H](O)C[C@@H]4C[C@H](O)CC[C@]4(C)[C@H]3C[C@H](O)[C@]12C", "Effect on zebrafish VDR": "No effect"}
{"Compound": "CC[C@H](CC[C@@H](C)[C@H]1CC[C@H]2[C@@H]3CC=C4C[C@@H](O)CC[C@]4(C)[C@H]3CC[C@]12C)C(C)C", "Effect on zebrafish VDR": "No effect"}
{"Compound": "CC(C)(Oc1ccc(Cl)cc1)C(=O)O", "Effect on zebrafish VDR": "No effect"}
{"Compound": "CC(=O)[C@H]1[C@H](C#N)C[C@H]2[C@@H]3CC=C4C[C@@H](O)CC[C@]4(C)[C@H]3CC[C@@]21C [Pregnenolone-16a-carbonitrile]", "Effect on zebrafish VDR": "No effect"}
{"Compound": "C[C@H](CC[C@@H]1OC1(C)C)[C@H]1CC[C@H]2[C@@H]3CC=C4C[C@@H](O)CC[C@]4(C)[C@H]3CC[C@]12C [24(S)-,25-Epoxycholesterol]", "Effect on zebrafish VDR": "No effect"}

Provide reported Effect on zebrafish VDR for each item, in the same order as listed.
1. C[C@]12CC[C@@H](O)C[C@H]1CC[C@@H]1[C@@H]2[C@@H](O)C[C@@]2(C)[C@H]1CC[C@]2(O)[C@@H](O)CO
2. C[C@]12CCC(=O)C=C1CC[C@@H]1[C@@H]2CC[C@]2(C)C(=O)CC[C@@H]12

Result:
1: No effect; 2: No effect
